Molecular target: human recombinant GR (Homo sapiens)
Construct: purchased PanVera P2812
Sequence (P04150 whole entry): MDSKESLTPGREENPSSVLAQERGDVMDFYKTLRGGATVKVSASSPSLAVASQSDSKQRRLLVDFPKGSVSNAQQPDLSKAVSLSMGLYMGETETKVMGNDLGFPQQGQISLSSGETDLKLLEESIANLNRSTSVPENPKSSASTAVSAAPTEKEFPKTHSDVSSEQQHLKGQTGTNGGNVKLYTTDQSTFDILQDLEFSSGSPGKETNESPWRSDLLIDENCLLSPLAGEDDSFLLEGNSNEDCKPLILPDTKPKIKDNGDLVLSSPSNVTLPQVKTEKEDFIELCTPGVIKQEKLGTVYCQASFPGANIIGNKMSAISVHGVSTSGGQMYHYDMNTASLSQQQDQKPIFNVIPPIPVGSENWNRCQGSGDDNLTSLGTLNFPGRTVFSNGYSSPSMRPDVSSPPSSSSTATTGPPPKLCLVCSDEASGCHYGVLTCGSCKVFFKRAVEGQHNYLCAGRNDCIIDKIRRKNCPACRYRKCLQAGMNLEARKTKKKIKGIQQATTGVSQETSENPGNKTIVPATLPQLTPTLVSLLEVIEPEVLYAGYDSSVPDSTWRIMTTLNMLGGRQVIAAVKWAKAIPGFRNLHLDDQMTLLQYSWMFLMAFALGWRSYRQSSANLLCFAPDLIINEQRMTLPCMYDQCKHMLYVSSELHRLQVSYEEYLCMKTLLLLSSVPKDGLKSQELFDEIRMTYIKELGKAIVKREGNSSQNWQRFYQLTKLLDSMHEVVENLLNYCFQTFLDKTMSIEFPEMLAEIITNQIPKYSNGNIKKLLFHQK
Assay: Human glucocorticoid receptor (GR) fluorescence polarisation (FP) binding assay
Conditions: human recombinant GR, fluorescence polarisation binding assay; read-out: GR binding
// Ki lookup, one value per entry
quantity: Ki

INSERT INTO assay_data (compound, meas_value) VALUES
  ('CCn1cc(S(=O)(=O)N2CCC3=Cc4c(cnn4-c4ccc(F)cc4)C[C@]3(C(=O)c3cscn3)C2)cn1 [Example 11BZ]', '< 0.5 nM'),
  ('O=C(c1ccccn1)[C@]12Cc3cnn(-c4ccc(F)cc4)c3C=C1CCN(S(=O)(=O)c1cn[nH]c1)C2 [Example 11BS]', '0.5 to 1 nM'),
  ('CCn1nccc1S(=O)(=O)N1CCC2=Cc3c(cnn3-c3ccc(F)cc3)C[C@]2(C(=O)c2cscn2)C1 [Example 11CW]', '< 0.5 nM'),
  ('O=C(c1ccccn1)[C@]12Cc3cnn(-c4ccc(F)cc4)c3C=C1CCN(S(=O)(=O)c1ccccc1F)C2', '< 0.5 nM'),
  ('O=C(c1ccccn1)[C@]12Cc3cnn(-c4ccccc4)c3C=C1CCN(S(=O)(=O)c1ccc(Cl)c(Cl)c1)C2 [Example 15B]', '< 0.5 nM'),
  ('CC(C)n1cc(S(=O)(=O)N2CCC3=Cc4c(cnn4-c4ccc(F)cc4)C[C@]3(C(=O)c3ccccn3)C2)nn1 [Example 11CV]', '< 0.5 nM'),
  ('Cc1cccc(S(=O)(=O)N2CCC3=Cc4c(cnn4-c4ccc(F)cc4)C[C@]3(C(=O)c3nccs3)C2)c1 [Example 12A]', '< 0.5 nM'),
  ('COc1cccc(S(=O)(=O)N2CCC3=Cc4c(cnn4-c4ccc(F)cc4)C[C@]3(C(=O)c3nccs3)C2)c1 [Example 12B]', '0.5 to 1 nM'),
  ('O=C(c1ccccn1)[C@]12Cc3cnn(-c4cccnc4)c3C=C1CCN(S(=O)(=O)c1cccc(C(F)(F)F)c1)C2 [Example 15A]', '< 0.5 nM');

* * *

// pKi lookup, one value per entry
Tested on: induction of TAT by dexamethasone in HepG2 cells
Experiment: HepG2 tyrosine aminotransferase (TAT) assay
Format: cell-based, human
Settings: HepG2 cells, challenge of 100 nM dexamethasone; Ki from IC50 by Cheng and Prusoff equation
Protocol: Example 21. HepG2 Tyrosine Aminotransferase (TAT) Assay Glucocorticoid mediated activation of TAT occurs by transactivation of glucocorticoid response elements in the TAT promoter by glucocorticoid receptor agonist complex. TAT activity was measured as outlined in the literature by A. Ali et al., J. Med. Chem., 2004, 47, 2441-2452. HepG2 cells were cultured using MEME media supplemented with 10% (v/v) foetal bovine serum; 2 mM L-glutamine and 1% (v/v) NEAA at 37° C., 5%/95% (v/v) CO2/air. […]
pKi: −log10 of the molar value.
quantity: pKi

INSERT INTO results (compound, meas_value) VALUES
  ('O=C(c1nccs1)[C@]12Cc3cnn(-c4ccc(F)cc4)c3C=C1CCN(S(=O)(=O)c1ccc(F)c(C(F)(F)F)c1)C2 [Example 12I]', '7.00 to 7.70'),
  ('CCc1ccnc(C(=O)[C@]23Cc4cnn(-c5ccc(F)cc5)c4C=C2CCN(S(=O)(=O)c2cc(F)c(F)c(F)c2)C3)c1 [Example 1L]', '> 7.70'),
  ('O=C(c1ccccn1)[C@]12Cc3cnn(-c4ccc(F)c(F)c4)c3C=C1CCN(S(=O)(=O)c1ccc(Cl)c(Cl)c1)C2 [Example 15C]', '7.00 to 7.70'),
  ('CN1CCOc2cc(S(=O)(=O)N3CCC4=Cc5c(cnn5-c5ccc(F)cc5)C[C@]4(C(=O)c4ccccn4)C3)cnc21 [Example 11AB]', '7.00 to 7.70'),
  ('CCCn1nncc1S(=O)(=O)N1CCC2=Cc3c(cnn3-c3ccc(F)cc3)C[C@]2(C(=O)c2ccccn2)C1 [Example 11CO]', '7.00 to 7.70'),
  ('COCCn1cc(S(=O)(=O)N2CCC3=Cc4c(cnn4-c4ccc(F)cc4)C[C@]3(C(=O)c3ccccn3)C2)cn1 [Example 11CB]', '> 7.70');
